Hello, the source for this data is ChEMBL document CHEMBL1649421, in case you need it.

test.target: 17-beta-hydroxysteroid dehydrogenase type 1 (Homo sapiens)
test.description: Inhibition of [3H]E1 binding to human recombinant 17beta-HSD1 expressed in baculovirus-infected Sf9 cells at 1 uM after 10 mins by fluid scintillation counting
endpoint.label: inhibition (%)
Answer in %, number only, no unit symbol.

Entry CS(=O)(=O)Nc1cccc(-c2c(O)ccc3cc(-c4cccc(O)c4)ccc23)c1 ; assay system 17-beta-hydroxysteroid dehydrogenase type 1 (Homo sapiens); inhibition recorded at 91

Bench note, 17-beta-hydroxysteroid dehydrogenase type 1 (Homo sapiens): entry COc1ccc(-c2c(O)ccc3cc(-c4cccc(O)c4)ccc23)cn1 , its inhibition = 89

Assay 17-beta-hydroxysteroid dehydrogenase type 1 (Homo sapiens), sample Oc1cccc(-c2ccc3c(-c4ccc(N5CCOCC5)cc4)c(O)ccc3c2)c1 , inhibition read: 65

inhibition for 17-beta-hydroxysteroid dehydrogenase type 1 (Homo sapiens) with input Oc1cccc(-c2ccc3c(-c4ccoc4)c(O)ccc3c2)c1 equals 89

The compound Oc1cccc(-c2ccc3c(-c4cccnc4)c(O)ccc3c2)c1 on 17-beta-hydroxysteroid dehydrogenase type 1 (Homo sapiens): inhibition was 92

Item: O=C(O)c1cccc(-c2c(O)ccc3cc(-c4cccc(O)c4)ccc23)c1 | System: 17-beta-hydroxysteroid dehydrogenase type 1 (Homo sapiens) | inhibition: 80

Record CC(=O)Nc1cccc(-c2c(O)ccc3cc(-c4cccc(O)c4)ccc23)c1 / 17-beta-hydroxysteroid dehydrogenase type 1 (Homo sapiens), inhibition recorded as 82

Noted inhibition for Nc1cccc(-c2c(O)ccc3cc(-c4cccc(O)c4)ccc23)c1 , tested on 17-beta-hydroxysteroid dehydrogenase type 1 (Homo sapiens): 87

So the reported inhibition for O=C(O)CCC(=O)Nc1cccc(-c2c(O)ccc3cc(-c4cccc(O)c4)ccc23)c1 , on 17-beta-hydroxysteroid dehydrogenase type 1 (Homo sapiens), turned out to be 62

Form field, inhibition with 17-beta-hydroxysteroid dehydrogenase type 1 (Homo sapiens), item Oc1cccc(-c2ccc3c(-c4ccncc4)c(O)ccc3c2)c1 : 86

Record for Oc1cccc(-c2ccc3c(-c4cccc(O)c4)c(O)ccc3c2)c1 under target or system 17-beta-hydroxysteroid dehydrogenase type 1 (Homo sapiens): inhibition reported as 93

====

test.description: Cmax in Wistar rat at 50 mg/kg, po administered as single dose by LC-MS/MS analysis
Format: ADME, organism-based
Set-up: dose 50 mg/kg, route oral
condition.summary: in vivo
Please go through the items and note down their Cmax.
Use ng/mL as the unit, but write only the number.

For Nc1cccc(-c2c(O)ccc3cc(-c4cccc(O)c4)ccc23)c1 the compound record lists Cmax as 44

# Cmax (compound: Oc1cccc(-c2ccc3c(-c4cccnc4)c(O)ccc3c2)c1 ) is 16

====

Please go through the items and note down their inhibition.
test.target: 17-beta-hydroxysteroid dehydrogenase type 2 (Homo sapiens) (UniProt P37059)
Sequence (P37059 whole entry): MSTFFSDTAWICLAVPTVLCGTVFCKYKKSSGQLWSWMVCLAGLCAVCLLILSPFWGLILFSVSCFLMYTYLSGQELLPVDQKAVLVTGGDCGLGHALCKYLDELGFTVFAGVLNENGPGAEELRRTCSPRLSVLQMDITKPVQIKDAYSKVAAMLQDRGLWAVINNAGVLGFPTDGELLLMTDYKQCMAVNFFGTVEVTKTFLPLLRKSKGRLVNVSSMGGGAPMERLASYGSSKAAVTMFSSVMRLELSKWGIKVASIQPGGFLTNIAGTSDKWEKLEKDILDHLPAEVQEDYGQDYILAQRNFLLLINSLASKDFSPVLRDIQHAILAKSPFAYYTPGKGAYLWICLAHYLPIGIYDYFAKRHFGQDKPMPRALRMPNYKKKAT
test.description: Inhibition of [3H]E2 binding to human recombinant 17beta-HSD2 expressed in baculovirus-infected Sf9 cells at 1 uM after 10 mins by fluid scintillation counting
Just so you know, I need the unit written after the number.

For Oc1cccc(-c2ccc3c(-c4ccoc4)c(O)ccc3c2)c1 the compound record lists inhibition as 92%

// sample COc1ccc(-c2c(O)ccc3cc(-c4cccc(O)c4)ccc23)cn1 , its inhibition was 67%

Entry under test: Oc1cccc(-c2ccc3c(-c4ccc(N5CCOCC5)cc4)c(O)ccc3c2)c1 . Its inhibition was 32%

Field inhibition (entry CS(=O)(=O)Nc1cccc(-c2c(O)ccc3cc(-c4cccc(O)c4)ccc23)c1 ) reads 71%

Per the record, Oc1cccc(-c2ccc3c(-c4cccnc4)c(O)ccc3c2)c1 has inhibition of 90%

Note to self: inhibition recorded for Oc1cccc(-c2ccc3c(-c4ccccc4)c(O)ccc3c2)c1 was 77%

# inhibition of O=C(O)CCC(=O)Nc1cccc(-c2c(O)ccc3cc(-c4cccc(O)c4)ccc23)c1 = 68%

Sure, the documented inhibition for Oc1cccc(-c2ccc3c(-c4ccncc4)c(O)ccc3c2)c1 is 49%

Entry CC(=O)Nc1cccc(-c2c(O)ccc3cc(-c4cccc(O)c4)ccc23)c1 — recorded inhibition = 64%

The reported value for O=C(O)c1cccc(-c2c(O)ccc3cc(-c4cccc(O)c4)ccc23)c1 in terms of inhibition is 34%

# compound Oc1cccc(-c2ccc3c(-c4cccc(O)c4)c(O)ccc3c2)c1 ; its inhibition = 40%

Looking up Nc1cccc(-c2c(O)ccc3cc(-c4cccc(O)c4)ccc23)c1 , I found its inhibition recorded as 39%

====

Exercise: state measured inhibition for each of the compounds provided.
test.target: 17-beta-hydroxysteroid dehydrogenase type 2 (Homo sapiens)
test.description: Inhibition of [3H]E2 binding to human recombinant 17beta-HSD2 expressed in baculovirus-infected Sf9 cells at 100 nM after 10 mins by fluid scintillation counting

Recorded result, O=C(O)CCC(=O)Nc1cccc(-c2c(O)ccc3cc(-c4cccc(O)c4)ccc23)c1 , inhibition: 24%

inhibition in this record for Oc1cccc(-c2ccc3c(-c4cccc(O)c4)c(O)ccc3c2)c1 : < 10%

Looking up CS(=O)(=O)Nc1cccc(-c2c(O)ccc3cc(-c4cccc(O)c4)ccc23)c1 , I see its inhibition listed as 31%

# inhibition of Oc1cccc(-c2ccc3c(-c4ccccc4)c(O)ccc3c2)c1 = 22%

For this compound ( Oc1cccc(-c2ccc3c(-c4cccnc4)c(O)ccc3c2)c1 ), measured inhibition is 66%

In plain terms, CC(=O)Nc1cccc(-c2c(O)ccc3cc(-c4cccc(O)c4)ccc23)c1 has a documented inhibition of 24%

====

endpoint.label: pIC50
Note on pIC50: it is the negative log10 of concentration, concentration in mol/L.

Reported pIC50 (Cytochrome P450 3A4 (Homo sapiens, UniProt P08684)) for entry Oc1cccc(-c2ccc3c(-c4cccc(O)c4)c(O)ccc3c2)c1 is 7.40

Bench note, Cytochrome P450 3A4 (Homo sapiens, UniProt P08684): Oc1cccc(-c2ccc3c(-c4ccccc4)c(O)ccc3c2)c1 , pIC50 reads 5.56

====

Assign Papp at 3 h to each entry below.
test.description: Apparent permeability across human Caco2 cells after 180 mins by LC-MS/MS analysis
Type: ADME, cell-based
condition.summary: Caco-2
// note: answer is a bare numeric in ×10⁻⁶ cm/s

# compound Nc1cccc(-c2c(O)ccc3cc(-c4cccc(O)c4)ccc23)c1 ; its Papp at 3 h = 16

Notebook: CS(=O)(=O)Nc1cccc(-c2c(O)ccc3cc(-c4cccc(O)c4)ccc23)c1 , Papp at 3 h read as 19

In plain terms, COc1ccc(-c2c(O)ccc3cc(-c4cccc(O)c4)ccc23)cn1 has a documented Papp at 3 h of 8

Entry under test: Oc1cccc(-c2ccc3c(-c4cccnc4)c(O)ccc3c2)c1 . Its Papp at 3 h was 14

Given item Oc1cccc(-c2ccc3c(-c4ccccc4)c(O)ccc3c2)c1 , the value recorded as its Papp at 3 h is 9.3

====

Kindly supply the reported RBA values for the records listed here.
test.target: UniProt Q92731
Sequence (Q92731 whole entry): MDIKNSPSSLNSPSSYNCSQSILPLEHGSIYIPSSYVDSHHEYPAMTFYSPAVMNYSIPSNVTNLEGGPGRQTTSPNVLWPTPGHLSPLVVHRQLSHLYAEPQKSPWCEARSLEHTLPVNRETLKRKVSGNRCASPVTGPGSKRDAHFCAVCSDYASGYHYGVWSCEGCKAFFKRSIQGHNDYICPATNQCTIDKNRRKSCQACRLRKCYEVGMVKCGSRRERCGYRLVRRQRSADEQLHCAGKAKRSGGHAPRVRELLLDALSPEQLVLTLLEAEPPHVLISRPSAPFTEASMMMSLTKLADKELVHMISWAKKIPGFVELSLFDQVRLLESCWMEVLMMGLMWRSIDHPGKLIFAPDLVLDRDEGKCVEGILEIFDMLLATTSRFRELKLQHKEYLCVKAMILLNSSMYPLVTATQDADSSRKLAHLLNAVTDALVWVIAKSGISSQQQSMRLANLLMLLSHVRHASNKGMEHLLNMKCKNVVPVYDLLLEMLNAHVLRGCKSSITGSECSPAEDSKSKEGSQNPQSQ
test.description: Displacement of [3H]E2 from human recombinant ERbeta by liquid scintillation counting relative to estradiol

Measured RBA for this entry Oc1cccc(-c2ccc3cc(O)ccc3c2)c1 on UniProt Q92731: 0.1%

Lab entry: UniProt Q92731 assay, molecule Oc1cccc(-c2ccc3c(-c4cccnc4)c(O)ccc3c2)c1 , RBA = 0.01%

The observed RBA for CS(=O)(=O)Nc1cccc(-c2c(O)ccc3cc(-c4cccc(O)c4)ccc23)c1 when tested with UniProt Q92731 stands at < 0.01%

Observed RBA on UniProt Q92731, entry COc1ccc(-c2c(O)ccc3cc(-c4cccc(O)c4)ccc23)cn1 , equals < 0.01%

Response field RBA (UniProt Q92731) for item Oc1cccc(-c2ccc3c(-c4cccc(O)c4)c(O)ccc3c2)c1 : 0.01%

Entry Oc1cccc(-c2ccc3c(-c4ccncc4)c(O)ccc3c2)c1 , UniProt Q92731 data, RBA value: < 0.01%

====

test.description: AUC (0 to t) in Wistar rat at 50 mg/kg, po administered as single dose by LC-MS/MS analysis
Type: ADME, organism-based
Design: dose 50 mg/kg, route oral
condition.summary: plasma
endpoint.label: AUC(0-t) (ng·h/mL)
Please give a number only; it is taken to be in ng·h/mL.

The recorded AUC(0-t) for entry Nc1cccc(-c2c(O)ccc3cc(-c4cccc(O)c4)ccc23)c1 equals 337

The molecule identified as Oc1cccc(-c2ccc3c(-c4cccnc4)c(O)ccc3c2)c1 registered its AUC(0-t) at 203

====

Organism: Homo sapiens
test.description: Selectivity ratio of IC50 for human placental 17beta-HSD2 to IC50 for human placental 17beta-HSD1
endpoint.label: Ratio IC50

// Ratio IC50 value for Oc1cccc(-c2ccc3cc(O)ccc3c2)c1 : 49

Ratio IC50 measured on Oc1cccc(-c2ccc3c(-c4ccoc4)c(O)ccc3c2)c1 = 8

Lab note: Oc1cccc(-c2ccc3c(-c4ccccc4)c(O)ccc3c2)c1 gave Ratio IC50 of 27

For reference, reported Ratio IC50 for CS(=O)(=O)Nc1cccc(-c2c(O)ccc3cc(-c4cccc(O)c4)ccc23)c1 stands at 27

The recorded Ratio IC50 for Oc1cccc(-c2ccc3c(-c4cccc(O)c4)c(O)ccc3c2)c1 is 27

Looking up Oc1cccc(-c2ccc3c(-c4cccnc4)c(O)ccc3c2)c1 , I see its Ratio IC50 listed as 45
